Form field: DC50 (one value per entry).
Biological target: G2019S LRRK2 (Homo sapiens, UniProt Q5S007, G2019S)
Construct: expressed in transfected cells; host or cells: HEK293 (ATCC CRL-1573), transient transfection, mammalian expression vector with ubiquitin promoter
Sequence (Q5S007 whole entry G2019S): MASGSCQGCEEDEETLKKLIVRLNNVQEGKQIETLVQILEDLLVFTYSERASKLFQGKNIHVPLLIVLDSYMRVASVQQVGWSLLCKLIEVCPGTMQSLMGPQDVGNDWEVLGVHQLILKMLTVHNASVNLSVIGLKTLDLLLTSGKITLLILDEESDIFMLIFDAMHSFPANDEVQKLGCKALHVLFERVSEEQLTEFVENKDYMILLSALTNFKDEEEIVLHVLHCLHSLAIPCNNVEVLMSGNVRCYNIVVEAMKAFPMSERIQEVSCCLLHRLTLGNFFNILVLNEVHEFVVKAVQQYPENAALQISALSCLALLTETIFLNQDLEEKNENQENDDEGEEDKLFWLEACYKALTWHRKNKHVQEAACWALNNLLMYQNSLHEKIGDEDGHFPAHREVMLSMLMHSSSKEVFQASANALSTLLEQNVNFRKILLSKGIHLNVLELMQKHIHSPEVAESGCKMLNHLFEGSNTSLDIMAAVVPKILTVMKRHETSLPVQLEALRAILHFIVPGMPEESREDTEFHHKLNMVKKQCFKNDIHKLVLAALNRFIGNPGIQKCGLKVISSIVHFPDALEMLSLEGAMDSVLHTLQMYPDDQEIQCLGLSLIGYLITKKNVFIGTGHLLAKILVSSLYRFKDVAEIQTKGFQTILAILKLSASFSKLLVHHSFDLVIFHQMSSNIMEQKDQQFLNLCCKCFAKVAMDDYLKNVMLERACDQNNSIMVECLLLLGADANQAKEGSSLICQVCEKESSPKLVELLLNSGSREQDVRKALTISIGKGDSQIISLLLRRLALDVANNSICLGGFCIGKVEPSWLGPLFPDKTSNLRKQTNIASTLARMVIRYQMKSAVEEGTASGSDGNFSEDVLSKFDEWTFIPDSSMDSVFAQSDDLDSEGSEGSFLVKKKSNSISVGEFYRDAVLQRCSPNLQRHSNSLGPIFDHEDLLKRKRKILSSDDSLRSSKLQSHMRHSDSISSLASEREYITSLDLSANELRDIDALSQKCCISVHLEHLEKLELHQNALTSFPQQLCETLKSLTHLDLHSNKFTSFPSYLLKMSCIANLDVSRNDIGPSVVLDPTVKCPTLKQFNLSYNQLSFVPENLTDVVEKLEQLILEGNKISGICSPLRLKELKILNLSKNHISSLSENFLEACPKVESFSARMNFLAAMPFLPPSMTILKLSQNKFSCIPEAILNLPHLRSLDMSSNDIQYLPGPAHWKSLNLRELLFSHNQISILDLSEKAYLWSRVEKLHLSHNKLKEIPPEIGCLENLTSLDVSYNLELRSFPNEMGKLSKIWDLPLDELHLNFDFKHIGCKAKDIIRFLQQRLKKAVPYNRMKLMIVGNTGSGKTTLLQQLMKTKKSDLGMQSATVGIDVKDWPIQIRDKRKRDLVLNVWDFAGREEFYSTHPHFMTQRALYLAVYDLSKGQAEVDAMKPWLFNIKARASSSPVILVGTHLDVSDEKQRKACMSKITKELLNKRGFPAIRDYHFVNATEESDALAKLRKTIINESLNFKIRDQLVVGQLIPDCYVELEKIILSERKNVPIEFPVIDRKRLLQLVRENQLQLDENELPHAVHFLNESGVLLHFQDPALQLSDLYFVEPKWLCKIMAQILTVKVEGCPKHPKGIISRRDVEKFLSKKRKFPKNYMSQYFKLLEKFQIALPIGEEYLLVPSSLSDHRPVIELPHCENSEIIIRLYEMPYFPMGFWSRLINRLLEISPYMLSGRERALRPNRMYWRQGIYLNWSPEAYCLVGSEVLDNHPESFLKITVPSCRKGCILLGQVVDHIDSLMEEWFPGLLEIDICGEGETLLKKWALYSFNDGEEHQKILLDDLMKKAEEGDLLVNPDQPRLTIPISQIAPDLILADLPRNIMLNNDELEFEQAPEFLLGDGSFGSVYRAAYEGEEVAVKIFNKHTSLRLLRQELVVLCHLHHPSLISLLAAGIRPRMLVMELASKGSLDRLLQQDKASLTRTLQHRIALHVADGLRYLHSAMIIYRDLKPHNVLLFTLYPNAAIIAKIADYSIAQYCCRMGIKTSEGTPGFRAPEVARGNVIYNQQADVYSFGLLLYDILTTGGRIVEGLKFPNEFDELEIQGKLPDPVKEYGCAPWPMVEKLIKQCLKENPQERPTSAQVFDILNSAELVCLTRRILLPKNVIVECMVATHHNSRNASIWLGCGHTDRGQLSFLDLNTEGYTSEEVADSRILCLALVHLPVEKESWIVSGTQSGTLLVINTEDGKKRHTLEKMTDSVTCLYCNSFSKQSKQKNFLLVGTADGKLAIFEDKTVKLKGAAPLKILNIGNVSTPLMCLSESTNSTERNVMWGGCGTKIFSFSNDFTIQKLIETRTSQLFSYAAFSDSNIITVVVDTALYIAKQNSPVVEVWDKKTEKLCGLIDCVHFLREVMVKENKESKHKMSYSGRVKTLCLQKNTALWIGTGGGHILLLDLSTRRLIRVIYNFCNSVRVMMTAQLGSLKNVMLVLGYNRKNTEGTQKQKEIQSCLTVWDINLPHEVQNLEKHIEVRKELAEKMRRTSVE
Experiment: LRRK2 degradation assay, HiBit-tagged G2019S LRRK2 expressed from plasmid in HEK293 cells (Nano-Glo Dual-Luciferase)
Assay type: cell-based
Settings: HiBit-tagged G2019S LRRK2 in HEK293 cells, 24 hours

Query: Form field: reported DC50 of C[C@H]1CN(c2cc(-c3n[nH]c4cc(F)c(OC5(C)CC5)cc34)ncn2)CCN1CC1CCN(CC2CCN(c3ccc4c(c3)C(=O)N(C3CCC(=O)NC3=O)C4=O)CC2)CC1 (some centres unmarked)
Response: < 0.01 µM

Query: Form field: reported DC50 of C[C@H]1CN(c2cc(-c3n[nH]c4ccc(OC5(C)CC5)cc34)ncn2)CCN1CCN1CCN(CC2CCN(c3ccc4c(c3)C(=O)N(C3CCC(=O)NC3=O)C4=O)CC2)CC1 (some centres unmarked)
Response: < 0.01 µM

Query: Form field: reported DC50 of CC1(Oc2ccc3[nH]nc(-c4cc(N5CCC(O[C@H]6CC[C@H](OC7CCN(c8ccc9c(c8)C(=O)N(C8CCC(=O)NC8=O)C9=O)CC7)CC6)CC5)ncn4)c3c2)CC1 (some centres unmarked)
Response: 0.01 to 0.05 µM

Query: Form field: reported DC50 of CC1(Oc2ccc3[nH]nc(-c4cc(N5CCC(CN6CCN(C(=O)C7CCN(c8ccc9c(c8)C(=O)N(C8CCC(=O)NC8=O)C9=O)CC7)CC6)CC5)ncn4)c3c2)CC1 (centres unmarked)
Response: < 0.01 µM

Query: Form field: reported DC50 of C[C@H]1CN(c2cc(-c3n[nH]c4ccc(OC5(C)CC5)cc34)ncn2)CCN1CC1CCN(CC2(F)CCN(c3ccc4c(c3)C(=O)N(C3CCC(=O)NC3=O)C4=O)CC2)CC1 (some centres unmarked)
Response: < 0.01 µM
